Field: Recovery ratio with respect to Hb concentration after 0 days. Provide a value for each of the molecules that follow.
Tested on: hemoglobin-haptoglobin complex
Test: Stability of hemoglobin (as hemoglobin-haptoglobin complex) in samples preserved at 37° C. in preservation solution containing 1 unit/L haptoglobin, Hb measured by latex agglutination method (Examples 1 to 7)
Design: species or system human
Conditions: No feces; sugar 100 mmol/L + phenylboronic acid 15 mmol/L; 37° C., 21 days
Field format: number, assumed %, no unit text.

Request: Checklist item: Recovery ratio with respect to Hb concentration after 0 days tested on hemoglobin-haptoglobin complex, entry `OC[C@H]1O[C@H](O[C@H]2O[C@H](CO)[C@@H](O)[C@H](O)[C@H]2O)[C@H](O)[C@@H](O)[C@@H]1O` , value?
Response: 93

Request: Checklist item: Recovery ratio with respect to Hb concentration after 0 days tested on hemoglobin-haptoglobin complex, entry `OC[C@@H](O)[C@@H](O)[C@H](O)[C@@H](O)CO` , value?
Response: 92

Request: Checklist item: Recovery ratio with respect to Hb concentration after 0 days tested on hemoglobin-haptoglobin complex, entry `O=C(CO)[C@@H](O)[C@H](O)[C@H](O)CO` , value?
Response: 93

Request: Checklist item: Recovery ratio with respect to Hb concentration after 0 days tested on hemoglobin-haptoglobin complex, entry `OC[C@H]1O[C@@](CO)(O[C@H]2O[C@H](CO)[C@@H](O)[C@H](O)[C@H]2O)[C@@H](O)[C@@H]1O` , value?
Response: 97

* * *

Field: Hb concentration. Provide a value for each of the compounds that follow.
System: hemoglobin-haptoglobin complex
Assay: Stability of hemoglobin (as hemoglobin-haptoglobin complex) in samples preserved at 37° C. in preservation solution containing 1 unit/L haptoglobin, Hb measured by latex agglutination method (Examples 1 to 7)
Design: species or system human
Conditions: Feces 2; sugar 50 mmol/L + phenylboronic acid 15 mmol/L; 37° C., 7 days
Field format: number, assumed µg/L, no unit text.

Request: Any idea what Hb concentration was measured for `OC[C@@H](O)[C@@H](O)[C@H](O)[C@@H](O)CO` ?
Response: 280

Request: Any idea what Hb concentration was measured for `OC[C@H]1O[C@@](CO)(O[C@H]2O[C@H](CO)[C@@H](O)[C@H](O)[C@H]2O)[C@@H](O)[C@@H]1O` ?
Response: 266

Request: Any idea what Hb concentration was measured for `O=C(CO)[C@@H](O)[C@H](O)[C@H](O)CO` ?
Response: 275

Request: Any idea what Hb concentration was measured for `OC[C@@H](O)[C@@H](O)[C@H](O)[C@H](O)CO` ?
Response: 291

Request: Any idea what Hb concentration was measured for `OC[C@H]1O[C@H](O[C@H]2O[C@H](CO)[C@@H](O)[C@H](O)[C@H]2O)[C@H](O)[C@@H](O)[C@@H]1O` ?
Response: 257

* * *

Field: Recovery ratio with respect to Hb after 0 days. Provide a value for each of the molecules that follow.
Molecular target: hemoglobin (Homo sapiens, UniProt P68871+P69905)
Sequence (P69905 2-142): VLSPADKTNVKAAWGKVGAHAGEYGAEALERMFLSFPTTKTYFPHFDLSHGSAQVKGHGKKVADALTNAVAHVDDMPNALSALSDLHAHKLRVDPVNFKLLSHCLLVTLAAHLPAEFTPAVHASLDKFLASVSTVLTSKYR
Sequence (P68871 2-147): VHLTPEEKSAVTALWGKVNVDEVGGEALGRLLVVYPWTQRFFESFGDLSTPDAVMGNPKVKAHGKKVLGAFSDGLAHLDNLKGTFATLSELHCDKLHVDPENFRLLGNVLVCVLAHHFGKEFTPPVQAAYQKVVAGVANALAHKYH
Assay: Stability of hemoglobin in samples preserved at 37° C. in preservation solution containing no haptoglobin, Hb measured by latex agglutination method (Examples 8, 9 and Table 10)
Conditions: Feces 1; 16 h at 37° C.; no phenylboronic acid, sugar 100 mmol/L
Field format: number, assumed %, no unit text.

Request: Any idea what Recovery ratio with respect to Hb after 0 days was measured for OC[C@H]1O[C@@](CO)(O[C@H]2O[C@H](CO)[C@@H](O)[C@H](O)[C@H]2O)[C@@H](O)[C@@H]1O [Sucrose, sucrose] ?
Response: 51

Request: Any idea what Recovery ratio with respect to Hb after 0 days was measured for OC[C@@H](O)[C@@H](O)[C@H](O)[C@H](O)CO [Mannitol, mannitol] ?
Response: 48

Request: Any idea what Recovery ratio with respect to Hb after 0 days was measured for O=C(CO)[C@@H](O)[C@H](O)[C@H](O)CO [Fructose, fructose] ?
Response: 48

Request: Any idea what Recovery ratio with respect to Hb after 0 days was measured for OC[C@@H](O)[C@@H](O)[C@H](O)[C@@H](O)CO [Sorbitol, sorbitol] ?
Response: 50

Request: Any idea what Recovery ratio with respect to Hb after 0 days was measured for OC[C@H]1O[C@H](O[C@H]2O[C@H](CO)[C@@H](O)[C@H](O)[C@H]2O)[C@H](O)[C@@H](O)[C@@H]1O [Trehalose, trehalose] ?
Response: 50
